Tested on: S. aureus strain 1 (MDR clinical isolate, MRSA, mecA positive)
Assay: MIC/MBC by broth micro-dilution (CLSI)
Type: cell-based, Staphylococcus aureus
Conditions: Staphylococcus aureus, MRSA, S. aureus Strain 1; modal value; read-out: MIC
Protocol: The compounds were initially tested with a methicillin-resistant S. aureus and an E. faecalis clinical isolates (details in the experimental section), two MDR strains according to definition by Magiorakos et al.. The activity of studied compounds was assessed by broth micro-dilution method. Minimal Inhibitory Concentration (MIC), and Minimal Bactericidal Concentration (MBC) were determined and possible bacteriostatic or bactericidal activity was also investigated. […]
PARAMETER_MEASURED: MIC (µM)
All answers are understood in µM, so give the number only.

Worked set:
TEST_SMILES	MIC / µM
C/C(=C\c1ccc(-c2ccc(O)c(C34CC5CC(CC(C5)C3)C4)c2)cc1)C(=O)O	5
N#C/C(=C\c1ccc(-c2ccc(O)c(C34CC5CC(CC(C5)C3)C4)c2)cc1)C(=O)O	5
O=C(/C=C/c1ccc(-c2ccc(O)c(C34CC5CC(CC(C5)C3)C4)c2)cc1)NO	164

Item: `O=C(O)/C=C/c1ccc(-c2ccc(O)c(C34CC5CC(CC(C5)C3)C4)c2)c(C=NOCC(=O)O)c1` Test system: S. aureus strain 1 (MDR clinical isolate, MRSA, mecA positive) Read-out: MIC Value: ? 269

Find the measured MIC: item `COc1cc(-c2ccc(/C=C/C(=O)O)cc2)cc(C23CC4CC(CC(C4)C2)C3)c1O` , target or system S. aureus strain 1 (MDR clinical isolate, MRSA, mecA positive). 40

====

Tested on: S. aureus strain 1 (MDR clinical isolate, MRSA, mecA positive)
Assay: MIC/MBC by broth micro-dilution (CLSI)
Format: cell-based, Staphylococcus aureus
Conditions: Staphylococcus aureus, MRSA, S. aureus Strain 1; modal value of three replicates; read-out: MIC
Description: The compounds were initially tested with a methicillin-resistant S. aureus and an E. faecalis clinical isolates (details in the experimental section), two MDR strains according to definition by Magiorakos et al.. The activity of studied compounds was assessed by broth micro-dilution method. Minimal Inhibitory Concentration (MIC), and Minimal Bactericidal Concentration (MBC) were determined and possible bacteriostatic or bactericidal activity was also investigated. […]
The label Y is reserved for MIC strictly under 8 µg/mL; N covers values equal to or above it.

Before answering, review these 3 worked examples.
COMPOUND	QUALITATIVE_LABEL
CCCCC/C=C\C/C=C\CCCCCCCC(=O)Oc1ccc(-c2ccc(/C=C/C(=O)O)cc2)cc1C12CC3CC(CC(C3)C1)C2 [Compound 3]	N
O=Cc1cc(-c2ccc(/C=C/C(=O)O)cc2)cc(C23CC4CC(CC(C4)C2)C3)c1O [Compound 15]	N
O=C(O)/C=C/c1ccc(-c2cc3c(c(C45CC6CC(CC(C6)C4)C5)c2)OCCO3)cc1 [Compound 12]	Y

Is MIC strictly under 8 µg/mL for the entry CON=Cc1cc(/C=C/C(=O)O)ccc1-c1ccc(O)c(C23CC4CC(CC(C4)C2)C3)c1 [Compound 17] ? Y

Threshold test, MIC < 8 µg/mL: CC(C)(C)ON=Cc1cc(/C=C/C(=O)O)ccc1-c1ccc(O)c(C23CC4CC(CC(C4)C2)C3)c1 [Compound 16] Y

Determine if O=C(O)C=Cc1ccc(-c2ccc(OCCCCO)c(C34CC5CC(CC(C5)C3)C4)c2)cc1 [Compound 2] shows MIC strictly lower than 8 µg/mL. N

Confirm or reject: MIC of COc1cc(-c2ccc(/C=C/C(=O)O)cc2)cc(C23CC4CC(CC(C4)C2)C3)c1O [Compound 11] lies strictly below 8 µg/mL N

Would you kindly verify if MIC of O=C(/C=C/c1ccc(-c2ccc(O)c(C34CC5CC(CC(C5)C3)C4)c2)cc1)NO [Compound 5] is strictly less than 8 µg/mL? N

Check if MIC falls below 8 µg/mL for CC(C)(C)c1cc(-c2ccc(/C=C/C(=O)O)cc2)ccc1O [Compound 1] . N

# strict comparison: is reported MIC < 8 µg/mL? input = O=Cc1cc(/C=C/C(=O)O)ccc1-c1ccc(O)c(C23CC4CC(CC(C4)C2)C3)c1 [Compound 20] Y

Does the reported MIC of the following compound sit strictly below 8 µg/mL? O=C(O)CCc1ccc(-c2ccc(O)c(C34CC5CC(CC(C5)C3)C4)c2)cc1 [Compound 10] N

Origin of the recorded values: paper PMC7912516
